The origin of these recorded values is patent US12509460B2.

test system: MDR1 (P-gp); assay: in vitro; settings: dog, MDCK-MDR1, pH 7.4
Measured Papp B→A at 120 min, 5 μM of individual entries
Respond numerically; units are ×10⁻⁶ cm/s and should not be typed.

Observed Papp B→A at 120 min, 5 μM on MDR1 (P-gp), entry CN(c1ccc(-c2cc3ncn(CC(F)(F)F)c(=O)c3cc2O)nn1)[C@H]1C[C@@H]2CC[C@H]([C@H]1F)N2C (single isomer, unassigned) [Compound 108B] , equals 59.5

Observed Papp B→A at 120 min, 5 μM on MDR1 (P-gp), entry CN(c1ccc(-c2cc(C#N)ccc2O)nn1)[C@H]1C[C@@H]2CC[C@@H](N2)[C@H]1F (single isomer, unassigned) [Compound 70B] , equals 58.1

Observed Papp B→A at 120 min, 5 μM on MDR1 (P-gp), entry CC(=O)N(C)c1ccc(-c2ccc(N(C)[C@@H]3C[C@H]4CC[C@H](N4)[C@@H]3F)nn2)c(O)c1 [Compound 35A] , equals 41

Observed Papp B→A at 120 min, 5 μM on MDR1 (P-gp), entry CNC(=O)c1cc(O)c(-c2ccc(N(C)[C@@H]3C[C@H]4CC[C@H](N4)[C@@H]3F)nn2)cc1F [Compound 47A] , equals 49.3

Observed Papp B→A at 120 min, 5 μM on MDR1 (P-gp), entry CN(c1ccc(-c2cc3cc[nH]c(=O)c3s2)nn1)[C@H]1C[C@@H]2CC[C@@H](N2)[C@H]1F (single isomer, unassigned) [Compound 66B] , equals 4.64

Observed Papp B→A at 120 min, 5 μM on MDR1 (P-gp), entry CN(c1ccc(-c2cn3c(=O)ccnc3cc2O)nn1)[C@@H]1C[C@H]2CC[C@@H]([C@@H]1F)N2C (single isomer, unassigned) [Compound 95A] , equals 8.79
